- system: CDK16/CycY (Homo sapiens (Human), UniProt Q00536)
- Sequence (Q00536 whole entry): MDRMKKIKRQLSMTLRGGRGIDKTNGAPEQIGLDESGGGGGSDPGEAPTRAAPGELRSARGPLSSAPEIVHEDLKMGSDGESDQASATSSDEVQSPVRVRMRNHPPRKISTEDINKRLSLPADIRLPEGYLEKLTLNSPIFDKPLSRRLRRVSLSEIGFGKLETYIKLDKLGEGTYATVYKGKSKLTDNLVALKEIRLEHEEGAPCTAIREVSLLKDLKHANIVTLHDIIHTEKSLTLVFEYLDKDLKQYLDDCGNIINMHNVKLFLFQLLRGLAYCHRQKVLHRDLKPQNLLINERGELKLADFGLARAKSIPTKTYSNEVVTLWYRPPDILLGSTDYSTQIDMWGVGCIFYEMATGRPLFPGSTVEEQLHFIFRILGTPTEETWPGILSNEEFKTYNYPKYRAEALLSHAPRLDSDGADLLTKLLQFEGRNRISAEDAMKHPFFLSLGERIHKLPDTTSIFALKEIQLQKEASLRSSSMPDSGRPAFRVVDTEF
- Sequence (Q8ND76 whole entry partner): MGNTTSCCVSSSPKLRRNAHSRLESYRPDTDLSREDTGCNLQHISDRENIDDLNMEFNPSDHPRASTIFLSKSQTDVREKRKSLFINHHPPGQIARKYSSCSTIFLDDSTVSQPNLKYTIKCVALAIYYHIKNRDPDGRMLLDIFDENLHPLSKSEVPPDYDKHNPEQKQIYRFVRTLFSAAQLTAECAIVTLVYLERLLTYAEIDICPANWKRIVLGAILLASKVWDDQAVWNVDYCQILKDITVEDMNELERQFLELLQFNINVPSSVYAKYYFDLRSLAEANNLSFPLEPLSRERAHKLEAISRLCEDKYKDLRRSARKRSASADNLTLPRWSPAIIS
- test-description: Lanthascreen Eu kinase binding assay for CDK16/CycY
- condition-set: read-out: IC50 CDK16 Lanthascreen binding
parameter-measured: log10(IC50) (log10 of the value in nM)
On a log10 scale: recorded IC50, unit nM.

Example entries and their recorded answers appear below.
CN(C)C/C=C/C(=O)Nc1cccc(S(=O)(=O)N2CCC(NC(=O)c3n[nH]cc3NC(=O)c3ccccc3)CC2)c1	0.99
COc1cccc(F)c1C(=O)Nc1c[nH]nc1C(=O)NC1CCN(S(=O)(=O)c2cccc(NC(=O)/C=C/CN(C)C)c2)CC1	0.45
COc1cccc(OC)c1C(=O)Nc1c[nH]nc1C(=O)NC1CCN(S(=O)(=O)c2cccc(NC(=O)/C=C/CN(C)C)c2)CC1	1.05

Please give log10(IC50) for each item listed below.
1. CN(C)C/C=C/C(=O)Nc1cccc(C(=O)Nc2ccc(NC(=O)c3n[nH]cc3NC(=O)c3c(Cl)cccc3Cl)cc2)c1
2. CN(C)C/C=C/C(=O)Nc1cccc(N2CCC(NC(=O)c3n[nH]cc3NC(=O)c3c(Cl)cccc3Cl)CC2)c1
3. CC(C)c1[nH]nc(C(=O)NC2CCN(S(=O)(=O)c3cccc(NC(=O)/C=C/CN(C)C)c3)CC2)c1NC(=O)c1c(Cl)cccc1Cl

Result ::
1. 1.75
2. 1.87
3. 3.95
